system.under.test: CFTR-R117H (Homo sapiens, UniProt P13569, R117H)
Sequence (P13569 whole entry R117H): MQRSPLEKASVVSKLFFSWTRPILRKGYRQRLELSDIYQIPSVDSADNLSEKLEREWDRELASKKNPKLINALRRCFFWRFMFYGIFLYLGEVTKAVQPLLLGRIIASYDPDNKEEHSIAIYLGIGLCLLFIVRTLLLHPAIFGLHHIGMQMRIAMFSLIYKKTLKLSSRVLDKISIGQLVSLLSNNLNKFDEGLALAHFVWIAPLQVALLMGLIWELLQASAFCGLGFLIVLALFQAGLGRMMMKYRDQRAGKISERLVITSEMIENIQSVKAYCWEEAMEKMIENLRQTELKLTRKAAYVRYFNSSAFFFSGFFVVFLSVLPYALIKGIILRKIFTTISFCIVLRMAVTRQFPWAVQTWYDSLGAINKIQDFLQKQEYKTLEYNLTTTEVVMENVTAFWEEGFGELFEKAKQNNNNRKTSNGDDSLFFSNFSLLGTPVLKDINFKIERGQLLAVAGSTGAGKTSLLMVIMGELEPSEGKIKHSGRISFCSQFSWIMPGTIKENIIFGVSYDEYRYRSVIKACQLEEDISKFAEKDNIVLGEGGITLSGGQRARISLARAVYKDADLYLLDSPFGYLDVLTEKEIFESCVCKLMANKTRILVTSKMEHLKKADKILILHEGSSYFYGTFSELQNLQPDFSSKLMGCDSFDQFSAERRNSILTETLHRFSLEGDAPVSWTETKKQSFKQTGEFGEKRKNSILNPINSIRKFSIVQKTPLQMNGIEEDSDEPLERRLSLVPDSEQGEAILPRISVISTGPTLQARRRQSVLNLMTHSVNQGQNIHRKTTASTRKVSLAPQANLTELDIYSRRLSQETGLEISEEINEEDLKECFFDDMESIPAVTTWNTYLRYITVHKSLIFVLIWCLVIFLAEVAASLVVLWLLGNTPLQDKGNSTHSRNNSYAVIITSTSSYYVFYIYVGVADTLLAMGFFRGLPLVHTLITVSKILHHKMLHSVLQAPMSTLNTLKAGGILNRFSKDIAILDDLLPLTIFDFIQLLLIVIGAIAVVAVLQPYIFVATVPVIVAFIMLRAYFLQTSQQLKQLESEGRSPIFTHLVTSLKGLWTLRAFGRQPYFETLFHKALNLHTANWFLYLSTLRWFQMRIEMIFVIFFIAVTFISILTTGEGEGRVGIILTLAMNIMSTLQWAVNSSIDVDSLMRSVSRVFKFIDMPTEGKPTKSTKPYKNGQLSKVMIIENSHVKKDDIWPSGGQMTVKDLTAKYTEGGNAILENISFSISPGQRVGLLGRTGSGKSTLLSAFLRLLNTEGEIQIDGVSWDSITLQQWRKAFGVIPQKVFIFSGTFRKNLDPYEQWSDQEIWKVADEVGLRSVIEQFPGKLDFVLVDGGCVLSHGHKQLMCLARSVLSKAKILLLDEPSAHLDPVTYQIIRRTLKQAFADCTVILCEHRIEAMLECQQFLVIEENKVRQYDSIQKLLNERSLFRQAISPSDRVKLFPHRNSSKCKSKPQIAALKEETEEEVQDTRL
method: YFP-halide influx assay for the CFTR-R117H
test.readout: EC50

Nc1cc(S(=O)(=O)c2ccc(C(F)(F)F)cc2)cnc1C(=O)NCC(F)(F)CO [Compound 241]
608 nM
Nc1cc(S(=O)(=O)c2ccc(OC(F)(F)F)cc2)cnc1C(=O)N1CC(OCC(F)F)C1 [Compound 119]
307 nM
Nc1cc(S(=O)(=O)c2ccccc2OC(F)(F)F)cnc1C(=O)N1CC(F)(F)C1 [Compound 78]
59.5 nM
Nc1cc(S(=O)(=O)c2ccc(C(F)(F)F)cc2)cnc1C(=O)N1CC(F)(F)C1 [Compound 103]
351 nM

====

system.under.test: CFTR ΔF508 mutant (Homo sapiens, UniProt P13569, DEL508-508)
Sequence (P13569 with tags, fused parts or gaps DEL508-508): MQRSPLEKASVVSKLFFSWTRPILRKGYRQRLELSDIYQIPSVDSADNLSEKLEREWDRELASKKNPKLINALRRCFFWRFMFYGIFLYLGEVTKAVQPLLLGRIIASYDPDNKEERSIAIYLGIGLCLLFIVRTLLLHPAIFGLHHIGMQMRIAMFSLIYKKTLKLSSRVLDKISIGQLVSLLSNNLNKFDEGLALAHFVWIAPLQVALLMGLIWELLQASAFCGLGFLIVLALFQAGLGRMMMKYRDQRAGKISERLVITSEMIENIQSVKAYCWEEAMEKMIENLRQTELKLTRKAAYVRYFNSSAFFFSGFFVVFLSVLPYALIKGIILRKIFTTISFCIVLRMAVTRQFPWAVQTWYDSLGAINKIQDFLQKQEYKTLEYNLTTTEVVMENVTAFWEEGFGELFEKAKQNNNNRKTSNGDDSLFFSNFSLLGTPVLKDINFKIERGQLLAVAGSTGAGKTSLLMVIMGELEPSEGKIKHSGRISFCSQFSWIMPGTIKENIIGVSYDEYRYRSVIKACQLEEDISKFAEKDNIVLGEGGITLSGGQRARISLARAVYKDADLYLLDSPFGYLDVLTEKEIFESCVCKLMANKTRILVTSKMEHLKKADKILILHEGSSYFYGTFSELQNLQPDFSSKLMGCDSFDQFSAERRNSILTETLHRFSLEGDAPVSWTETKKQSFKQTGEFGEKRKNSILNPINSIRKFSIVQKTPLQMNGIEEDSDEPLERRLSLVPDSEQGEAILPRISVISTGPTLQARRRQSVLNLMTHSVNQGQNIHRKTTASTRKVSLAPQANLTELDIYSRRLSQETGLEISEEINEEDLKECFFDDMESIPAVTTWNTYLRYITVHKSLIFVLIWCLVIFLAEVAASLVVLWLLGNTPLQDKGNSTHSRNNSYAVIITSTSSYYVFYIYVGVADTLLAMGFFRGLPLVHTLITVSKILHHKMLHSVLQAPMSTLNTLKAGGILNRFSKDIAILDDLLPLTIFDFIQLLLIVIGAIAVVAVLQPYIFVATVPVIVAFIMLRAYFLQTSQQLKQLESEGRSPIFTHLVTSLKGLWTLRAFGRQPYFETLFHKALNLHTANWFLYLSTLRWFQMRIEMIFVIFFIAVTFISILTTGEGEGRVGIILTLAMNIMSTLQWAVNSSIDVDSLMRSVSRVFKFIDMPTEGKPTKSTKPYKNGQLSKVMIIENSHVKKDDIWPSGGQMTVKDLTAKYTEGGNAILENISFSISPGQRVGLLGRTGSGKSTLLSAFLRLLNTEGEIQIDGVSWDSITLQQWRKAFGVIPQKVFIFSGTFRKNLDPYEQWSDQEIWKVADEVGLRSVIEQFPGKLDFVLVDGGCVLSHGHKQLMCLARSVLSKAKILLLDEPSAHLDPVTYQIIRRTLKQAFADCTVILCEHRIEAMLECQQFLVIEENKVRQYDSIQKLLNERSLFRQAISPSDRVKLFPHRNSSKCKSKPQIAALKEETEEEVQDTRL
method: YFP-halide influx assay for the CFTR-ΔF508 mutation (CFBE41o- cells)
settings: forskolin 10.67 μM, from (1−F/F0) vs concentration plot
pEC50: −log10 of the molar value.
Items are presented alongside their recorded pEC50.
test.readout: pEC50

COC[C@H](O)CNC(=O)c1ncc(S(=O)(=O)c2ccc(OC(F)(F)F)cc2)cc1N
8.24
COCCN(C1CC1)S(=O)(=O)c1cnc(C(=O)NCC(O)C(F)(F)F)c(N)c1 (stereo not shown)
7.74
CC(C)(C)OCC(O)CNC(=O)c1ncc(S(=O)(=O)c2ccc(C(F)(F)F)cc2F)cc1N (stereo not shown)
8.09
Nc1cc(S(=O)(=O)c2ccccc2OC(F)(F)F)cnc1C(=O)N1CC(F)(F)C1
8.66

====

system.under.test: CFTR ΔF508 mutant (Homo sapiens, UniProt P13569, DEL508-508)
method: YFP-halide influx assay for the CFTR-ΔF508 mutation (CFBE41o- cells)
settings: forskolin 10.67 μM, from (1−F/F0) vs concentration plot
pEC50: −log10 of the molar value.
Categories are defined by ranges of pEC50, namely low end (below 7), middle (7 to below 8), high end (8 or more)

Nc1cc(S(=O)(=O)c2ccc(F)cc2)c(-c2ccc(F)cc2)nc1C(=O)NC[C@@H](O)C(F)(F)F
high end
Nc1cc(S(=O)(=O)N2CCC(C(F)(F)F)CC2)cnc1C(=O)NCC(O)C(F)(F)F (stereo not shown)
high end
Nc1cc(S(=O)(=O)c2ccc(OC(F)(F)F)cc2)cnc1C(=O)NCC1CCOCC1
low end
CC(C)C1(O)CN(C(=O)c2ncc(S(=O)(=O)c3ccc(C(F)(F)F)cc3)cc2N)C1
high end
CC1CCOCC1CNC(=O)c1ncc(S(=O)(=O)c2ccc(OC(F)(F)F)cc2)cc1N (stereo not shown)
low end
Nc1cc(S(=O)(=O)c2ccc(OC(F)(F)F)cc2)cnc1C(=O)N1CC(F)(F)C1
middle
Nc1cc(S(=O)(=O)c2ccc(C(F)(F)F)cc2)cnc1C(=O)NC[C@H](O)COCC(F)(F)F
high end
CC(C)(CO)CNC(=O)c1ncc(S(=O)(=O)c2ccc(OC(F)(F)F)cc2)cc1N
middle
Nc1cc(S(=O)(=O)c2ccc(OC(F)(F)F)cc2)cnc1C(=O)NC(CO)CO
low end

====

Items are presented alongside their recorded pEC50.
system.under.test: CFTR ΔF508 mutant (Homo sapiens, UniProt P13569, DEL508-508)
method: YFP-halide influx assay for the CFTR-ΔF508 mutation (CFBE41o- cells)
settings: forskolin 10.67 μM, from (1−F/F0) vs concentration plot
pEC50: −log10 of the molar value.
test.readout: pEC50

CC(C)OCC(O)CNC(=O)c1ncc(S(=O)(=O)c2ccc(OC(F)(F)F)cc2F)cc1N (stereo not shown)
8.02
Nc1cc(S(=O)(=O)c2ccc(OC(F)(F)F)cc2F)cnc1C(=O)N1CC(F)(F)C1
7.87
Nc1cc(S(=O)(=O)c2ccc(C(F)(F)F)cc2)cnc1C(=O)N1CC(O)(C(F)(F)F)C1
8.70
Nc1cc(S(=O)(=O)c2ccc(OC(F)(F)F)cc2)cnc1C(=O)N1CC(N2CCOCC2)C1
7.17
COc1ccc(S(=O)(=O)c2cnc(C(=O)NCC(O)C(F)(F)F)c(N)c2)cc1 (stereo not shown)
7.77
Nc1cc(S(=O)(=O)c2ccc(F)cc2)cnc1C(=O)NCC1(O)CC1
7.27
CC1(O)CN(C(=O)c2ncc(S(=O)(=O)c3ccc(OC(F)(F)F)cc3)cc2N)C1
8.16
Nc1cc(S(=O)(=O)c2ccc(OC(F)(F)F)cc2)cnc1C(=O)NCCC1OCCO1
7.39
CC(C)NC(=O)CNC(=O)c1ncc(S(=O)(=O)c2ccc(C(F)(F)F)cc2F)cc1N
7.98
Nc1cc(S(=O)(=O)c2ccc(OC(F)(F)F)cc2)cnc1C(=O)N1CC(F)C1
7.59
Nc1cc(S(=O)(=O)N2CCCC(F)C2)cnc1C(=O)NCC(O)C(F)(F)F (stereo not shown)
7.49
Nc1cc(S(=O)(=O)c2ccccc2)c(C2CC2)nc1C(=O)NCCO
7.37
CCNC(=O)C(C)NC(=O)c1ncc(S(=O)(=O)c2ccc(OC(F)(F)F)cc2)cc1N (stereo not shown)
6.63
Nc1cc(S(=O)(=O)c2ccc(OC(F)(F)F)cc2)cnc1C(=O)NCCC1CC1
6.92
Nc1cc(S(=O)(=O)c2ccc(OC(F)(F)F)cc2)cnc1C(=O)N1CC(OCC(F)F)C1
7.47
